Assay: Cytotoxicity assay in MT-4 cells
Format: cell-based
Details: human, uninfected MT-4 cells, Cell Titer Glo
recorded-metric: CC50 at 5 days
Write your answer as a measured quantity: the number, then the unit.

**Query** # input compound: [2H][C@]1(OC)C=C[C@H](C)N2C[C@H]1n1cc(C(=O)NCc3ccc(F)cc3F)c(=O)c(O)c1C2=O ; wanted: its CC50 at 5 days
**Result** 19.3 µM

**Query** Ok, now C[C@H]1CC[C@](C)(O)[C@H]2CN1C(=O)c1c(O)c(=O)c(C(=O)NCc3c(F)cc(F)cc3F)cn12
**Result** 38.7 µM

**Query** Ok, now C[C@H]1CC[C@@H](O)[C@H]2CN1C(=O)c1c(O)c(=O)c(C(=O)NCc3c(F)cc(F)cc3F)cn12
**Result** 50 µM

**Query** Ok, now CO[C@H]1C=C[C@H](C)N2C[C@H]1n1cc(C(=O)NCc3ccc(F)cc3F)c(=O)c(O)c1C2=O
**Result** 20 µM

**Query** Ok, now CO[C@H]1C=C[C@H](C)N2C[C@H]1n1cc(C(=O)NCc3ccc(F)c(Cl)c3F)c(=O)c(O)c1C2=O
**Result** 4.27 µM

**Query** Ok, now [2H]C([2H])([2H])[C@]1(O)CC[C@H](C)N2C[C@H]1n1cc(C(=O)NCc3ccc(F)cc3F)c(=O)c(O)c1C2=O
**Result** 8.23 µM

**Query** Ok, now CO[C@H]1CC[C@H](C)N2C[C@H]1n1cc(C(=O)NCc3ccc(F)cc3F)c(=O)c(O)c1C2=O
**Result** 16.5 µM

**Query** Ok, now C[C@H]1C=C[C@](C)(O)[C@H]2CN1C(=O)c1c(O)c(=O)c(C(=O)NCc3c(F)cc(F)cc3F)cn12
**Result** 28.4 µM

**Query** Ok, now CCO[C@H]1C=C[C@H](C)N2C[C@H]1n1cc(C(=O)NCc3c(F)cc(F)cc3F)c(=O)c(O)c1C2=O
**Result** 43.7 µM

**Query** Ok, now CO[C@H]1C[C@H](F)[C@H](C)N2C[C@H]1n1cc(C(=O)NCc3c(F)cc(F)cc3F)c(=O)c(O)c1C2=O
**Result** 19.6 µM

**Query** Ok, now C[C@H]1CC[C@@](C)(O)[C@H]2CN1C(=O)c1c(O)c(=O)c(C(=O)NCc3c(F)cc(F)cc3F)cn12 (single isomer, unassigned)
**Result** 34.6 µM

**Query** Ok, now C[C@H]1[C@H]2CO[C@H](C2)[C@H]2CN1C(=O)c1c(O)c(=O)c(C(=O)NCc3ccc(F)cc3F)cn12
**Result** 12.4 µM

**Query** Ok, now C[C@H]1CC[C@H](O)[C@H]2CN1C(=O)c1c(O)c(=O)c(C(=O)NCc3c(F)cc(F)cc3F)cn12
**Result** 50 µM

**Query** Ok, now CO[C@H]1CC[C@@H](C)N2C[C@H]1n1cc(C(=O)NCc3ccc(F)cc3F)c(=O)c(O)c1C2=O
**Result** 50 µM

**Query** Ok, now C[C@H]1C=C[C@](C)(O)[C@H]2CN1C(=O)c1c(O)c(=O)c(C(=O)NCc3ccc(F)cc3F)cn12
**Result** 31.4 µM

**Query** Ok, now CO[C@H]1C=C[C@H](C)N2C[C@H]1n1cc(C(=O)NCc3c(F)cc(F)cc3F)c(=O)c(O)c1C2=O
**Result** 13.4 µM

**Query** Ok, now CCO[C@H]1CC[C@H](C)N2C[C@H]1n1cc(C(=O)NCc3c(F)cc(F)cc3F)c(=O)c(O)c1C2=O
**Result** 44.3 µM

**Query** Ok, now C[C@H]1CC[C@@](O)(CF)[C@H]2CN1C(=O)c1c(O)c(=O)c(C(=O)NCc3c(F)cc(F)cc3F)cn12
**Result** 44.7 µM

**Query** Ok, now C[C@H]1CC[C@@](C)(O)[C@H]2CN1C(=O)c1c(O)c(=O)c(C(=O)NCc3ccc(F)cc3F)cn12
**Result** 22.8 µM

**Query** Ok, now CO[C@@H]1CC[C@H](C)N2C[C@H]1n1cc(C(=O)NCc3c(F)cc(F)cc3F)c(=O)c(O)c1C2=O
**Result** 13 µM

**Query** Ok, now CO[C@@H]1CC(F)(F)[C@H](C)N2C[C@H]1n1cc(C(=O)NCc3c(F)cc(F)cc3F)c(=O)c(O)c1C2=O (single isomer, unassigned)
**Result** 27.3 µM

**Query** Ok, now CO[C@H]1C[C@@H](F)[C@H](C)N2C[C@H]1n1cc(C(=O)NCc3c(F)cc(F)cc3F)c(=O)c(O)c1C2=O
**Result** 11.7 µM

**Query** Ok, now C[C@H]1CC[C@H](O)[C@H]2CN1C(=O)c1c(O)c(=O)c(C(=O)NCc3ccc(F)cc3F)cn12
**Result** 41.4 µM

**Query** Ok, now CO[C@@H]1C=C[C@H](C)N2C[C@H]1n1cc(C(=O)NCc3ccc(F)c(Cl)c3F)c(=O)c(O)c1C2=O
**Result** 4.01 µM

**Query** Ok, now CO[C@H]1CC[C@H](C)N2C[C@H]1n1cc(C(=O)NCc3c(F)cc(F)cc3F)c(=O)c(O)c1C2=O
**Result** 34.8 µM

**Query** Ok, now C[C@H]1C=C[C@H](O)[C@H]2CN1C(=O)c1c(O)c(=O)c(C(=O)NCc3c(F)cc(F)cc3F)cn12
**Result** 50 µM
